Provenance of the data: patent US20080318933A1

# measured_on: human cloned 5-HT6 receptors (Homo sapiens)
# Construct: expressed in transfected cells; host or cells: HeLa cells expressing cloned human 5-HT6 receptor (membranes)
# Sequence (P50406 whole entry): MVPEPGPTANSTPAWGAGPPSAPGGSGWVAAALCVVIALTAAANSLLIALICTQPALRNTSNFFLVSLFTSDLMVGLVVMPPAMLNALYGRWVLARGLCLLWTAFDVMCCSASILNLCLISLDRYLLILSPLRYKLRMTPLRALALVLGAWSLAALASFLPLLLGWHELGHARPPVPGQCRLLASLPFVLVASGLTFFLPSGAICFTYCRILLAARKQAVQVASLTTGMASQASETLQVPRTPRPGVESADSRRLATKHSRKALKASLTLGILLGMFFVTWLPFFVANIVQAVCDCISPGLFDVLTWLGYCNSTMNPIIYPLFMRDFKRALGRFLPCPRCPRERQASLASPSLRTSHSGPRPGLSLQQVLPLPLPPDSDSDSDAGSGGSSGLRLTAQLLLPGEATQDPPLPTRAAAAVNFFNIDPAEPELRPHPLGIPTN
# measurement_notes: Cyclase assay (cAMP production in membranes of HeLa 5HT6 cells, 5-HT stimulated)
# Type: biochemical
# test_conditions: 5-HT at 4xEC50, functional Ki by Cheng-Prusoff, read-out: pKi values (converted)
# Description: 0.5 μl of test compound in 100% dimethylsulfoxide (DMSO) was added to a white, solid 384 well assay plate (for dose response measurements the top of the concentration range is 7.5 μM final). […]
Where a name gives a salt, the structure may show the parent alone.
reported_property: Ki

Before answering, review these 5 worked examples.
CCN1CCC(N2CCc3cc(S(=O)(=O)c4cccc(C)c4)ccc32)CC1 [Example E63, hydrochloride] ... ≤ 0.01 µM
O=S(=O)(c1cccc(F)c1)c1ccc2c(ccn2C2CCNCC2)c1 [Example E22, hydrochloride] ... ≤ 0.01 µM
CN1CCC(N2CCc3cc(S(=O)(=O)c4ccc(F)c(F)c4)ccc32)CC1 [Example E59, hydrochloride] ... ≤ 0.01 µM
O=S(=O)(c1cccc(Cl)c1)c1ccc2c(c1)CCN2C1CCNCC1 [Example E24, hydrochloride] ... ≤ 0.01 µM
N#Cc1ccccc1S(=O)(=O)c1ccc2c(c1)CCN2C1CCNCC1 [Example E20, hydrochloride] ... ≤ 0.01 µM

# molecule CCCN1CCC(N2CCc3cc(S(=O)(=O)c4cccc(F)c4)ccc32)CC1 [Example E56, hydrochloride] ; its Ki = ≤ 0.01 µM

# molecule CC(C)(C)CN1CCC(N2CCc3cc(S(=O)(=O)c4ccccc4)ccc32)CC1 ; its Ki = < 0.316 µM

# molecule O=S(=O)(c1ccc(Cl)cc1)c1ccc2c(c1)CCN2C1CCNCC1 [Example E13, hydrochloride] ; its Ki = ≤ 0.01 µM
